Overview of reported koff across a group of binders:
Target: Cynomolgus monkey IL-1β (cynomolgus monkey)
Sequence (P48090 117-269 limits assumed): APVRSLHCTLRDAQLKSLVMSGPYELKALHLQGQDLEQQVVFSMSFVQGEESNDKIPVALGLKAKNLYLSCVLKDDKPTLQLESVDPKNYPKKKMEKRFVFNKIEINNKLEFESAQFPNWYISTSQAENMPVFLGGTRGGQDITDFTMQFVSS
Experiment: Biacore low-res, mAb captured, cyno IL-1β 117 nM, 25C
VALUE_KIND: koff (s⁻¹)

binder="5.5.1 (antibody, IgG4, V domains shown) VH: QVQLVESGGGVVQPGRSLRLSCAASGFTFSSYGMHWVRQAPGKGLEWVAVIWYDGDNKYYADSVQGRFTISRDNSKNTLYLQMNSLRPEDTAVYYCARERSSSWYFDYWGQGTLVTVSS VL: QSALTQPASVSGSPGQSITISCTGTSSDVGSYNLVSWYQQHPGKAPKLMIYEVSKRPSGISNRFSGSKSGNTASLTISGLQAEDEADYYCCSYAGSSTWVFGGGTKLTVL" value_kind=koff unit_label=s⁻¹ observed_measurement=0.0011
binder="4.20.1 (antibody, human IgG4, V domains shown) VH: QVQLVESGGGVVQPGRSLRLSCAASGFTFSNYGMNWVRQAPGKGLEWVAVIWYDGNNKSEADSVKGRFTISRDNSKNTLYLQMNSLRAEDTAVYYCARDSRSGPFDYWGQGTLVTVSS VL: EIVLTQSPDFQSVTPKEKVTITCRASQSIGSSLHWYQQKPDQSPKLLIKFASQSFSGVPSRISGSGSGTDFTLTINSLEAEDAATYYCHQSSSLPFTFGPGTKVDIK" value_kind=koff unit_label=s⁻¹ observed_measurement=0.005
binder="6.26.1 (antibody, human IgG4, V domains shown) VH: QLQLQESGPGLVKPSETLSLTCTVSGGSISRSSYYWGWIRQPPGKGLEWMGNIYYSGSTHYNPSLKSRVTISVDTSKNQFSLKLSSVTAADTAVFYCAKGREYISSSGYGMDVWGQGTTVTVS VL: SYELTQPPSVSVSPGQTASITCSGDKLGNKYVCWYQQKPGQSPVLVIFQDSRRPSGIPERFSGSNSGNTATLTISGTQAMDEADYYCQAWDTSTVIFGGGTKLTVL" value_kind=koff unit_label=s⁻¹ observed_measurement=0.00031

Origin of the recorded values: patent US20070065439A1
